- procedure details: Pharmacokinetic evaluation in mice
- Assay type: in vivo
- measurement context: female, mouse, plasma, po; C57 mice, intragastric administration, 2 mg/kg; read-out: Clearance CLz/F
- Description: The drug concentration in the plasma of the test animals (mice) at different time points after intragastric administration (i.g.) of compound 18-p1 was determined by using an LC/MS/MS method. The pharmacokinetic behavior of the compound of the present disclosure in mice was studied and its pharmacokinetic profile was evaluated. Nine C57 mice, female, purchased from Beijing Vital River Laboratory Animal Technology Co., Ltd., with animal production license number of SOCK (Shanghai) 2017-0005. […]
readout type: CL/F (mL/min/kg)
Answers are plain numbers, in mL/min/kg.

[ask] Quick one: give measured CL/F for Cc1nc(N[C@H](C)c2cccc(C(F)F)c2F)c2cc([C@]3(O)CC[C@@H](O)CC3)c(=O)[nH]c2n1 [Example 18-p1]
[reply] 225
